test-target: GTPase KRas [G12C,C51S,C80L,C118S] (Homo sapiens, UniProt P01116, C118S/C51S/C80L/G12C)
Sequence (P01116 whole entry G12C/C51S/C80L/C118S, looked up): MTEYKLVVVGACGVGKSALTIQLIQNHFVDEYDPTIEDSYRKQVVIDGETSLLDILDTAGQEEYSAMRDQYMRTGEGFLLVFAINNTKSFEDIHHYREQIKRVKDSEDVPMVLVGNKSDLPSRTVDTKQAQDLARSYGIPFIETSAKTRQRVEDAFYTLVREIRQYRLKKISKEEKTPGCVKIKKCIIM
test-details: AlphaScreen Binding Assay
parameter: pIC50
Here pIC50 is given on a logarithmic scale as minus log10 of the concentration in mol/L.

Item: `C[C@H](Oc1cc(-n2nccc2-c2ccncc2)nc(-c2noc3c2CCC[C@@]32CCCc3sc(N)c(C#N)c32)n1)[C@@H]1CCCN1C` | pIC50: 8.40
